Assay: Cytotoxicity against human HepG2 cells
Type: cell-based
Entries and their CC50

>  <compound>
Cc1c(-c2ccc3c(c2)CNC3)ccc2c3ocnc3c(=O)n(C3CC3)c12

>  <CC50>
> 64 µg/mL

$$$$
>  <compound>
Cc1c(-c2cc(F)c(N)cc2F)ccc2c3ocnc3c(=O)n(C3CC3)c12

>  <CC50>
> 128 µg/mL

$$$$
>  <compound>
Cc1c(-c2ccc3[nH]cnc3c2)ccc2c3ocnc3c(=O)n(C3CC3)c12

>  <CC50>
> 16 µg/mL

$$$$
>  <compound>
Cc1c(-c2cnc(N)nc2)ccc2c3ocnc3c(=O)n(C3CC3)c12

>  <CC50>
> 32 µg/mL

$$$$
>  <compound>
Cc1c(-c2cc(F)c(CO)cc2F)ccc2c3ocnc3c(=O)n(C3CC3)c12

>  <CC50>
> 32 µg/mL

$$$$
>  <compound>
Cc1c(-c2ccc3nonc3c2)ccc2c3ocnc3c(=O)n(C3CC3)c12

>  <CC50>
> 32 µg/mL

$$$$
>  <compound>
Cc1c(-c2ccc(N)cc2F)ccc2c3ocnc3c(=O)n(C3CC3)c12

>  <CC50>
16 µg/mL

$$$$
>  <compound>
Cc1c(-c2cnc3[nH]ncc3c2)ccc2c3oc(CN)nc3c(=O)n(C3CC3)c12

>  <CC50>
> 128 µg/mL

$$$$
>  <compound>
Cc1c(-c2ccc(N)c(F)c2)ccc2c3ocnc3c(=O)n(C3CC3)c12

>  <CC50>
> 128 µg/mL

$$$$
>  <compound>
Cc1c(-c2ccc(C(C)N)cc2)ccc2c3ocnc3c(=O)n(C3CC3)c12 (stereo not given)

>  <CC50>
> 32 µg/mL

$$$$
>  <compound>
Cc1c(-c2cc(F)c(N)cc2F)ccc2c3oc(CN)nc3c(=O)n(C3CC3)c12

>  <CC50>
> 64 µg/mL

$$$$
>  <compound>
Cc1c(-c2ccc3[nH]ncc3c2)ccc2c3oc(CN)nc3c(=O)n(C3CC3)c12

>  <CC50>
32 µg/mL

$$$$
>  <compound>
Cc1c(-c2ccc3[nH]ncc3c2)ccc2c3ocnc3c(=O)n(C3CC3)c12

>  <CC50>
> 16 µg/mL

$$$$
>  <compound>
Cc1c(-c2ccc(N)c(C#N)c2)ccc2c3ocnc3c(=O)n(C3CC3)c12

>  <CC50>
> 4 µg/mL

$$$$
>  <compound>
Cc1c(-c2ccc3[nH]c(N)nc3c2)ccc2c3ocnc3c(=O)n(C3CC3)c12

>  <CC50>
> 32 µg/mL

$$$$
